- TEST_TARGET: Free fatty acid receptor 1 (Mus musculus) (UniProt Q76JU9)
- Sequence (Q76JU9 whole entry, the tested form may be a part): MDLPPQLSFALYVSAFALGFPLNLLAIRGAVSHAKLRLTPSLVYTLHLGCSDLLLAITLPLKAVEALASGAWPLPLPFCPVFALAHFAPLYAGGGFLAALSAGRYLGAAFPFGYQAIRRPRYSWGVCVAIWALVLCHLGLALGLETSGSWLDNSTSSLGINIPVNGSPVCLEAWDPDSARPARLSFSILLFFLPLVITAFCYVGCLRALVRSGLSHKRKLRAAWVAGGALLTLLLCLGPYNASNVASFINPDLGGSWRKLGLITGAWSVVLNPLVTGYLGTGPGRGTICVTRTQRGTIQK
- EXPERIMENT: Agonist activity at Prolink-tagged mouse GPR40 fused with EA-tagged beta-arrestin expressed in human U2OS cells assessed as induction of beta-arrestin recruitment measured after 90 mins by beta-galactosidase based PathHunter assay relative to control
- Type: cell-based
- DETAILS: filed as agonist
Recorded Emax by entry
QUANTITY: Emax (%)

[[record]]
smiles = "CC#C[C@@H](CC(=O)O)c1ccc(OCc2ncc(CN3CCC4(C=Cc5ccccc54)CC3)s2)cc1"
scale_unit = "%"
value_measured = 115

[[record]]
smiles = "CC#C[C@@H](CC(=O)O)c1ccc(OCc2ccc(CN3CCC4(C=Cc5ccccc54)CC3)c(F)c2)cc1"
scale_unit = "%"
value_measured = 148

[[record]]
smiles = "CC#C[C@@H](CC(=O)O)c1ccc(OCc2nc(C)c(CN3CCC4(C=Cc5ccccc54)CC3)s2)cc1"
scale_unit = "%"
value_measured = 118

[[record]]
smiles = "CC#C[C@@H](CC(=O)O)c1ccc(OCc2ccc(CN3CCC4(CC3)CN(C)c3c(Cl)cccc34)cc2)cc1"
scale_unit = "%"
value_measured = 141

[[record]]
smiles = "CC#C[C@@H](CC(=O)O)c1ccc(OCc2ccc(CN3CCCc4cccc(OC)c43)s2)cc1"
scale_unit = "%"
value_measured = 137

[[record]]
smiles = "CC#C[C@@H](CC(=O)O)c1ccc(OCc2ccc(CN3CCC4(C=Cc5ccccc54)CC3)cc2)cc1F"
scale_unit = "%"
value_measured = 120

[[record]]
smiles = "CC#C[C@@H](CC(=O)O)c1ccc(OCc2ccc(CN3CCC4(C=Cc5ccccc54)CC3)c(Cl)c2)cc1"
scale_unit = "%"
value_measured = 149

[[record]]
smiles = "CC#C[C@@H](CC(=O)O)c1ccc(OCc2ccc(CN3CCC4(CCc5ccccc54)CC3)s2)cc1"
scale_unit = "%"
value_measured = 126

